# MEASUREMENT_TARGET: T1, recombinant MUC18 protein (rProtein) (Homo sapiens (Human), UniProt P43121 24-559)
# T1 sequence: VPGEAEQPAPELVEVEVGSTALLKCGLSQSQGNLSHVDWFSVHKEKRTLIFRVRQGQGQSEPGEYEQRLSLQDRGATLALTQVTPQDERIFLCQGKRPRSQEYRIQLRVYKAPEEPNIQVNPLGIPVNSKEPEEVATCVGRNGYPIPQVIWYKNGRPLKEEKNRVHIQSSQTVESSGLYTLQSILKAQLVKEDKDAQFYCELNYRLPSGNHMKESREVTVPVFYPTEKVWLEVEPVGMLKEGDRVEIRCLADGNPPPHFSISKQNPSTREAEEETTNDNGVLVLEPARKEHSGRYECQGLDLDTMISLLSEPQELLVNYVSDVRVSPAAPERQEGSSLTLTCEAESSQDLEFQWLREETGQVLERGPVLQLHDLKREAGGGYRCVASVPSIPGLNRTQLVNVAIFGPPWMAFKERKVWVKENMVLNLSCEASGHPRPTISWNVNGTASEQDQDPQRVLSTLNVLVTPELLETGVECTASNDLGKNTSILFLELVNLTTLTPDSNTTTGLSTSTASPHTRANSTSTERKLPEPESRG
# EXPERIMENT: ELISA titration, antibody with varying concentrations of recombinant MUC18 protein
Mark false for Binding affinity values under 3 nM, and true for everything at or above.

Study these solved cases before continuing.
CL070333 (antibody, V domains shown, also called anti-MUC18 antibody CL070333) VH: QVQLQQSGPELVKPGTSVKISCKASGFTFTGYYLHWLKQRPGQGLEWIGWIYPGNVNTEFNEKFKGQATLTADKSSSTAYMQLSSLTSEDSAVYFCARSGYFASSYEFAYWGQGTLVTVSA VL: DIQMTQSPASLSASVGETVTITCRASENIYSYLAWYQQKQGKSPQLLVYNAKTLAEGVPSRFSVSGSGTHFSLKINSLQPEDFGSYYCQHHYGTPLTFGAGTKLELK | true
CL070370 (antibody, V domains shown, also called anti-MUC18 antibody CL070370) VH: QIQLVQSGPELKKPGETVKISCKTSGYTFTDYSMHWVKQAPRKGLKWMGWINTETGEPTYADDFKGRFAFSLETSASTAYLQINNLRNEDTATYFCVSYDYDAVSYWGQGTLVTVSA VL: DIVMTQSHKFMSTSVGDRVNITCKASQYVGAAVAWYQQKPGQSPKLLIYWASTRHTGVPDRFTGSGSGTDFTLTINNVQSEDLADYFCQQYGNYRTFGGGTKLEIK | true
CL070336 (antibody, V domains shown, also called anti-MUC18 antibody CL070336) VH: DVQLQESGPDLVKPYQSLSLTCTVTGYSITSGYSWHWIRQFPGNKLEWLGYMHYSATPNYNPSLKSRISITRDTSKNQFFLQLNSVTTEDTATYYCSRSLNWDVLDYWGQGTTLIVSS VL: DIVLTQSPAYLPVSLGQRATISCRASKSVRTSGYNYLHWYQQKPGQPPKLLIYLASNPESGVPGRFSGSGSGTDFTLNIHPVEEEDSATYYCQHSREFPFTFGGGTQLEIK | false
CL070349 (antibody, V domains shown, also called anti-MUC18 antibody CL070349) VH: DVQLQESGPGLVKPSQSLSLTCSVTGYSITSGFYWNWIRQLPGNKLEWLGYINFGGTNNYNPSLKIRGSITRDTSKNQFFLKLNSVTTEDTATYYCARGGNDGGFTYWGQGTLVTVSA VL: ENVLTQSPAIVAASLGQKVTMTCRASSSVSSTYFHWYQQKSGASPKPLLHRTSNLASGVPARFSGSGSGTSYSLTISSVEAEDDATYYCHQWSGYPYTFGGGTKLEIK | false
CL070341 (antibody, V domains shown, also called anti-MUC18 antibody CL070341) VH: EVQLVESGGDLVRPGGSLKLSCAASGFTFSTYGMSWVRQSPDKRLEWVATINSRASYTYYPDSVKGRFTISRDNAKNTLYLQMSSLKSEDTGLYFCARHRRDWDSYYAMDYWGQGTSVTVSS VL: NIMLTQSPSSLAVSTGDKVTMNCKSSQSVLYNSNQKNYLAWYQQKPGQSPTLLIYWASTSESGVPDRFTGSGSGTDFTLTISSVQAEDLAVYYCHQYLSSWTFGGGTKLEIK | true

Could you now consider this next binder?
Challenge: Assess whether reported Binding affinity for CL070324 (antibody, V domains shown, also called anti-MUC18 antibody CL070324) VH: EVLLQQSGPELVKPGASVKIPCKASGYTFTDYNMDWVKQSHGKSLEWIGDINPNNGATLYNQNFRGKATLTVDKSSSTAYMELRSLTSEDTAVYYCTRSGYDDYYALDYWGQGTSVTVSS VL: QTVLTQSPAIMSASLGEEITLTCSASSSVGYMHWYQQKSGTSPKLLIYSTSNLASGVPSRFSGRGSGTFYSLTISTVEAEDAADYYCHQWSNYPSTFGTGTKLELK sits at 3 nM or higher.
Response given: true
